The reported measurements were obtained from PubChem BioAssay.

# GFP response, % of DMSO per record follows
# Protocol: modulators of CIT2-GFP expression in yeast, confirmation, S. cerevisiae, GFP fusion, cherry picks, mother/daughter gates (AID 2274)
# Run Parameters: S. cerevisiae CIT2-GFP strain, flow cytometry, 3 h; at 10 µM; active compounds read high
API: value field is a number in %; no unit string.

>  <Molecule>
Cc1c(NC2=C(Cl)C(=O)N(c3ccccc3Cl)C2=O)c(=O)n(-c2ccccc2)n1C

>  <GFP response, % of DMSO / %>
110

$$$$
>  <Molecule>
O=Nc1c(O)c2ccccc2c2ccccc12

>  <GFP response, % of DMSO / %>
107

$$$$
>  <Molecule>
COc1ccccc1N=Cc1nc(-c2ccccc2)oc1OC(C)=O

>  <GFP response, % of DMSO / %>
90.1

$$$$

Looking for the measured GFP response, % of DMSO of COc1cc(OC)cc(C(=O)N2CCN(c3ccccc3F)CC2)c1 , can you help?
99.1

Looking for the measured GFP response, % of DMSO of COc1cc(/C=C2\N=C(c3c(-c4ccccc4)noc3C)OC2=O)ccc1OC(C)=O , can you help?
103

Looking for the measured GFP response, % of DMSO of CC1=CCC(C(=O)O)C(C(=O)Nc2ccc(-c3nc4ccc(C)cc4s3)cc2)C1 (stereo not drawn) , can you help?
112

Looking for the measured GFP response, % of DMSO of CCCc1cc(NCc2ccccn2)n2nc(C)c(-c3ccccc3)c2n1 , can you help?
92.6

Looking for the measured GFP response, % of DMSO of CCOC(=O)CNc1c(-c2ccccc2)nc2ccc(Cl)cn12 , can you help?
95

Looking for the measured GFP response, % of DMSO of Cc1ccc2[nH]c3c(=O)n(CC(=O)N4CCN(C)CC4)ncc3c2c1 , can you help?
101

###

# Protocol: yeast V-ATPase proton transport modulators, S. cerevisiae, pHLuorin, HTS validation (AID 504600);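 further: plate controls were DMSO for no effect and reference compound for full effect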
# Run Parameters: S. cerevisiae pHLuorin cytosolic pH, at 10 µM, active compounds read high
Reported Property: response (%)
API: value field is a number in %; no unit string.

Would you please look over these solved cases?
>  <Molecule>
CCOC(=O)COc1ccc2c(=O)c(-c3ccccc3)coc2c1

>  <Reported Property>
response

>  <Unit>
%

>  <Observed Measurement>
0.65

$$$$
>  <Molecule>
CCc1cn([C@H]2C[C@H](O)[C@@H](CO)O2)c(=O)[nH]c1=O

>  <Reported Property>
response

>  <Unit>
%

>  <Observed Measurement>
-0.71

$$$$
>  <Molecule>
CC1/C(=C\c2ccc(Cl)cc2)C(=O)C2CC1C2(C)C (centres undefined)

>  <Reported Property>
response

>  <Unit>
%

>  <Observed Measurement>
0.95

$$$$
>  <Molecule>
CN(CCc1cnn(C)c1)Cc1nc(CC2CC2)no1

>  <Reported Property>
response

>  <Unit>
%

>  <Observed Measurement>
-2.33

$$$$
>  <Molecule>
CC(O)Cn1cnc2c1c(=O)n(C)c(=O)n2C (centres undefined)

>  <Reported Property>
response

>  <Unit>
%

>  <Observed Measurement>
0.41

$$$$
>  <Molecule>
O=C(Nc1ccccc1)c1ccccc1CCc1ccccc1

>  <Reported Property>
response

>  <Unit>
%

>  <Observed Measurement>
-1.57

$$$$
>  <Molecule>
COc1cc2c(cc1OC)C(Cc1ccc(O)cc1)N(C)CC2 (centres undefined)

>  <Reported Property>
response

>  <Unit>
%

>  <Observed Measurement>
0.76

$$$$
>  <Molecule>
Cc1nc(C(=O)Nc2ccccc2Cl)cc2c1[nH]c1ccccc12

>  <Reported Property>
response

>  <Unit>
%

>  <Observed Measurement>
2.14

$$$$
>  <Molecule>
Cc1cc(-c2ccccc2)nnc1NCCN1CCOCC1

>  <Reported Property>
response

>  <Unit>
%

>  <Observed Measurement>
-0.98

$$$$
>  <Molecule>
N=C1C(c2ccccc2)=C(O)CN1CCCO

>  <Reported Property>
response

>  <Unit>
%

>  <Observed Measurement>
-6.01

$$$$

Looking for the measured response of C(=C\c1ccccc1)/CN1CCN(C(c2ccccc2)c2ccccc2)CC1 , can you help?
0.39

Looking for the measured response of CC(C)OC(=O)C(C)(C)Oc1ccc(C(=O)c2ccc(Cl)cc2)cc1 , can you help?
0.98

Looking for the measured response of COc1ccc(CN(CCN(C)C)c2ccccn2)cc1 , can you help?
0.3

Looking for the measured response of Cc1ccccc1OCCSc1nc2ncnc(N)c2[nH]1 , can you help?
3.1

Looking for the measured response of CCCC1O[C@@H]2C[C@H]3[C@@H]4CCC5=CC(=O)C=C[C@]5(C)[C@H]4[C@@H](O)C[C@]3(C)[C@]2(C(=O)CO)O1 (some centres undefined) , can you help?
-0.18

Looking for the measured response of COc1ccc2nc(NC(=O)Nc3ccccc3)sc2c1 , can you help?
70.8
